Assayed target: ENT1 (Homo sapiens, UniProt Q99808)
Sequence (Q99808 1-456): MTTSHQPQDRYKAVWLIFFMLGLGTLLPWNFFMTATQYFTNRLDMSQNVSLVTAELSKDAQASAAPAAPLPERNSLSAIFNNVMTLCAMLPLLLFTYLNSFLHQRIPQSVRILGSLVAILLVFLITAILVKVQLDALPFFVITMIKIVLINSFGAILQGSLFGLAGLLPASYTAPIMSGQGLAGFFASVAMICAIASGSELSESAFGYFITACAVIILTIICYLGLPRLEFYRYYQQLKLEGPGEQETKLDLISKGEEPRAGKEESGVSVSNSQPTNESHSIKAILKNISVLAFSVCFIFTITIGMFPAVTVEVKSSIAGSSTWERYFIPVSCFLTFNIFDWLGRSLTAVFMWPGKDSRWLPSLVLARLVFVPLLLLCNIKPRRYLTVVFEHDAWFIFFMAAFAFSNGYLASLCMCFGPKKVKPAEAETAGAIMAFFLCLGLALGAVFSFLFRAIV
Test method notes: Inhibition of [3H]uridine uptake into WT HeLa
Format: cell-based
Condition summary: 20 μM; model-predicted compounds from MedChem Express Drug Repurposing Library
Please respond with reported ENT1 % Inhibition (±SD) for every item in the list.

The recorded ENT1 % Inhibition (±SD) with ENT1 (Homo sapiens, UniProt Q99808) for Cc1ccc(C(=O)Nc2ccc(Oc3cc4cnn(C)c4cc3-c3cn[nH]c3)c(F)c2)c(=O)n1-c1ccc(F)cc1.Cl.Cl [Merestinib dihydrochloride] was 58.49 (4.13) %

The recorded ENT1 % Inhibition (±SD) with ENT1 (Homo sapiens, UniProt Q99808) for `CC[C@@H](C(=O)Nc1ccc(C(N)=O)c(F)c1)n1cc(OC)c(-c2cc(Cl)ccc2-n2cc(C(F)(F)F)nn2)cc1=O` was 95.39 (0.23) %

The recorded ENT1 % Inhibition (±SD) with ENT1 (Homo sapiens, UniProt Q99808) for `C/C=C/c1cc(OC)c(OC)cc1OC` was 52.42 (3.92) %

The recorded ENT1 % Inhibition (±SD) with ENT1 (Homo sapiens, UniProt Q99808) for `C#Cc1cccc(Nc2ncnc3cc(OC)c(OCCCN4CCOCC4)cc23)c1` was 67.27 (11.1) %

###

Assayed target: ENT2 (Homo sapiens, UniProt Q14542)
Sequence (Q14542 whole entry): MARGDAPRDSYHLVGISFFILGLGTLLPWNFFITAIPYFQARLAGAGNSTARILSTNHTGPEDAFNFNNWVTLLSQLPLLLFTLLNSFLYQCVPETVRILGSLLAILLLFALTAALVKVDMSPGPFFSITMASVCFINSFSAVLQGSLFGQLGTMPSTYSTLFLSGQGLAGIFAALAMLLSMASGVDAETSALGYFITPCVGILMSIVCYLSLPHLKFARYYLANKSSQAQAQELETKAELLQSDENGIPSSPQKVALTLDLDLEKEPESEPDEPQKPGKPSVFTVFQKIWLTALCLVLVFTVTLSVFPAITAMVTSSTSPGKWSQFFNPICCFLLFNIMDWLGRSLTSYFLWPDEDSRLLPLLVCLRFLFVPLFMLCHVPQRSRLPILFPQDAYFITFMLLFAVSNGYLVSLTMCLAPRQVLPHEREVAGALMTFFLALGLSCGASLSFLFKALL
Test method notes: Inhibition of [3H]uridine uptake into HeLa FlpIn cells overexpressing hENT2
pIC50: −log10 of the molar value.
We use 4 as the dividing line for pIC50: on or above the line is Y, below is N.

Q: Form field: pIC50 at least 4? Entry: CCCCc1nc(Cl)c(CO)n1Cc1ccc(-c2ccccc2-c2nn[nH]n2)cc1 [losartan]
Result: N

Q: Form field: pIC50 at least 4? Entry: CC(=O)N1CCN(c2ccc(OCC3COC(Cn4ccnc4)(c4ccc(Cl)cc4Cl)O3)cc2)CC1 (stereo not shown) [ketoconazole]
Result: Y

Q: Form field: pIC50 at least 4? Entry: CC(=O)[C@H]1CC[C@H]2[C@@H]3C[C@H](C)C4=CC(=O)CC[C@]4(C)[C@H]3[C@@H](O)C[C@]12C [medrysone]
Result: N

Q: Form field: pIC50 at least 4? Entry: C[C@@H]1O[C@@H](O[C@H]2[C@H](Oc3cc(O)c4c(c3)O[C@H](c3ccc(O)cc3)CC4=O)O[C@H](CO)[C@@H](O)[C@@H]2O)[C@H](O)[C@H](O)[C@H]1O [naringin]
Result: N

Q: Form field: pIC50 at least 4? Entry: COc1ccc(-c2cc(=O)c3c(OC)c(OC)c(OC)cc3o2)cc1OC [sinensetin]
Result: Y

Q: Form field: pIC50 at least 4? Entry: O=c1c(O)c(-c2cc(O)c(O)c(O)c2)oc2cc(O)cc(O)c12 [myricetin]
Result: Y

Q: Form field: pIC50 at least 4? Entry: O=c1[nH]c2ccccc2n1CCCN1CCC(n2c(=O)[nH]c3cc(Cl)ccc32)CC1 [domperidone]
Result: Y

Q: Form field: pIC50 at least 4? Entry: CCOC(=O)c1ncn2c1CN(C)C(=O)c1cc(F)ccc1-2 [flumazenil]
Result: Y

Q: Form field: pIC50 at least 4? Entry: CCc1oc2ccccc2c1C(=O)c1cc(Br)c(O)c(Br)c1 [benzbromarone]
Result: N

###

Assayed target: ENT1 (Homo sapiens)
Test method notes: Inhibition of [3H]uridine uptake into WT HeLa
Type: cell-based
Condition summary: read-out: predicted IC50 for ENT1; predicted from inhibition at 20 μM
Recorded metric: IC50 (µM)
# value in µM; strip the unit string

# IC50 of `COc1cc(O)cc(O)c1C(=O)c1ccccc1` = 12

###

Assayed target: UniProtKB Q14542
Test method notes: Inhibition of [3H]uridine uptake into HeLa FlpIn cells overexpressing hENT2
Format: cell-based
Condition summary: HeLa, read-out: ENT2 % Inhibition (20μM)
Recorded metric: inhibition at 20 µM (%)
# value in %; strip the unit string

# inhibition at 20 µM of `CCCCc1nc(Cl)c(CO)n1Cc1ccc(-c2ccccc2-c2nn[nH]n2)cc1` = 33

# inhibition at 20 µM of `COc1cc2ncnc(Nc3ccc(F)c(Cl)c3)c2cc1OCCCN1CCOCC1` = 54.6

# inhibition at 20 µM of `O=c1[nH]c2ccccc2n1CCCN1CCC(n2c(=O)[nH]c3cc(Cl)ccc32)CC1` = 64.3

# inhibition at 20 µM of `CCc1oc2ccccc2c1C(=O)c1cc(Br)c(O)c(Br)c1` = 25.4

# inhibition at 20 µM of `CC(=O)[C@H]1CC[C@H]2[C@@H]3C[C@H](C)C4=CC(=O)CC[C@]4(C)[C@H]3[C@@H](O)C[C@]12C` = 56.3

# inhibition at 20 µM of `CCOC(=O)c1ncn2c1CN(C)C(=O)c1cc(F)ccc1-2` = 85.1

# inhibition at 20 µM of `COc1ccc(-c2cc(=O)c3c(OC)c(OC)c(OC)cc3o2)cc1OC` = 82.5

# inhibition at 20 µM of CC(=O)N1CCN(c2ccc(OCC3COC(Cn4ccnc4)(c4ccc(Cl)cc4Cl)O3)cc2)CC1 (stereo not shown) = 89.4

# inhibition at 20 µM of `C[C@@H]1O[C@@H](O[C@H]2[C@H](Oc3cc(O)c4c(c3)O[C@H](c3ccc(O)cc3)CC4=O)O[C@H](CO)[C@@H](O)[C@@H]2O)[C@H](O)[C@H](O)[C@H]1O` = 8.5

# inhibition at 20 µM of `O=c1c(O)c(-c2ccc(O)c(O)c2)oc2cc(O)cc(O)c12` = 84.3

###

Assayed target: ENT1 (Homo sapiens)
Sequence (Q99808 1-456): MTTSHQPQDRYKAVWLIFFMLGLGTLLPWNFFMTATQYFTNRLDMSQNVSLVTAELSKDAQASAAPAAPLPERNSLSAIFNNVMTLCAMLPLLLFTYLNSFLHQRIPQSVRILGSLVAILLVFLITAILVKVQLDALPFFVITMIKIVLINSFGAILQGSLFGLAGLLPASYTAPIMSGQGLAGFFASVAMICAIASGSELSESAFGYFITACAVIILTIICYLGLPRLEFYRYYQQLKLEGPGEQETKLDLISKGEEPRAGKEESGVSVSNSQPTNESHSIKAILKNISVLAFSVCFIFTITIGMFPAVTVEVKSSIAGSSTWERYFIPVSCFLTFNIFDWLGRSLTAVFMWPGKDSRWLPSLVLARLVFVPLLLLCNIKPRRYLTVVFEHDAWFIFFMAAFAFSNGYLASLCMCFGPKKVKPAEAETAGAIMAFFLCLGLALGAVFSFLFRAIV
Test method notes: Inhibition of [3H]uridine uptake into WT HeLa
Type: cell-based
Condition summary: HeLa, read-out: ENT1 % Inhibition (±SD)
We use 80% as the dividing line for inhibition at 20 µM: on or above the line is class 1, below is class 0.

Q: Form field: inhibition at 20 µM at least 80%? Entry: C[C@]12CC[C@@H]3c4ccc(O)cc4CC[C@H]3[C@@H]1CC[C@H]2O [Alpha-Estradiol]
Result: class 0

Q: Form field: inhibition at 20 µM at least 80%? Entry: COc1ccc(CN=c2[nH]c(N3CCC[C@H]3CO)ncc2C(=O)NCc2ncccn2)cc1Cl [Avanafil]
Result: class 1

Q: Form field: inhibition at 20 µM at least 80%? Entry: COC(=O)c1cc(OC)c2c(c1-c1c(CO)cc(OC)c3c1OCO3)OCO2 [Bicyclol]
Result: class 0

Q: Form field: inhibition at 20 µM at least 80%? Entry: COc1ccc(-c2c(Cl)ncn2-c2ccc(S(N)(=O)=O)cc2)cc1F [Cimicoxib]
Result: class 0

Q: Form field: inhibition at 20 µM at least 80%? Entry: COc1cc(-c2cnc3cc(OCCN4CCOCC4)ccn23)cc2c1C(=O)N(CC(F)(F)F)CC2 [GLPG3970]
Result: class 0

Q: Form field: inhibition at 20 µM at least 80%? Entry: C=CC(=O)N1CCC(c2ccc(C(N)=O)c(-c3ccc(Oc4ccccc4)cc3)n2)CC1 [Orelabrutinib]
Result: class 1

Q: Form field: inhibition at 20 µM at least 80%? Entry: COc1ccc2[nH]c([S+]([O-])Cc3ncc(C)c(OC)c3C)nc2c1 (stereo not shown) [Omeprazole (sodium), Omeprazole]
Result: class 0

Q: Form field: inhibition at 20 µM at least 80%? Entry: COC(=O)C1=C(C)NC(C)=C(C(=O)OC)C1c1ccccc1[N+](=O)[O-] [Nifedipine]
Result: class 0

Q: Form field: inhibition at 20 µM at least 80%? Entry: CC(=O)O[C@]1(C(C)=O)CC[C@H]2[C@@H]3C=C(C)C4=CC(=O)CC[C@@H]4[C@H]3CC[C@@]21C [Nomegestrol acetate]
Result: class 1

Q: Form field: inhibition at 20 µM at least 80%? Entry: CO[C@H]1CC[C@H](n2c([C@@H]3CCCC(=O)N3c3ccc(F)c(F)c3)nc3cc(-c4c(C)noc4C)ccc32)CC1 [Inobrodib]
Result: class 1

Q: Form field: inhibition at 20 µM at least 80%? Entry: COc1cc([C@H]2Oc3cc([C@H]4Oc5cc(O)cc(O)c5C(=O)[C@@H]4O)ccc3O[C@@H]2CO)ccc1O [Silybin A]
Result: class 0

Q: Form field: inhibition at 20 µM at least 80%? Entry: COc1cc2c(Nc3ccc(Br)cc3F)ncnc2cc1OCC1CCN(C)CC1 [Vandetanib]
Result: class 0

Q: Form field: inhibition at 20 µM at least 80%? Entry: Cc1cccc(-c2nn3c(c2-c2ccnc4ccc(C(N)=O)cc24)CCC3)n1 [Galunisertib]
Result: class 0

Q: Form field: inhibition at 20 µM at least 80%? Entry: CCn1c(=O)c2c(nc(/C=C/c3ccc(OC)c(OC)c3)n2C)n(CC)c1=O [Istradefylline]
Result: class 1

Q: Form field: inhibition at 20 µM at least 80%? Entry: Oc1ccc(C2=Cc3ccc(O)cc3OC2)cc1 [Phenoxodiol]
Result: class 0
